Molecular target: TPP-1986 (hTNFRSF12Aaa28-80-T33Q-hIgG1-Fc) (human)
Assay: ELISA, TWEAKR-Fc coated 62 ng/ml, biotin-IgG titrated; + means IC50 1 to 150 pM;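 note: biotinylated IgG binding to immobilized TWEAKR-Fc muteins, detected with Streptavidin-HRP and Amplex Red, IC50 derived from fitted dose-response curves of twofold serial dilutions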
MEASUREMENT_NAME: binding result

| BINDER | MEASUREMENT_NAME | READOUT_VALUE |
| --- | --- | --- |
| 18.3.3(TPP-2193) (antibody, mouse IgG2a, kappa, V domains shown, Murine IgG2a; variable domains from WO2009/020933 with constant region added) VH: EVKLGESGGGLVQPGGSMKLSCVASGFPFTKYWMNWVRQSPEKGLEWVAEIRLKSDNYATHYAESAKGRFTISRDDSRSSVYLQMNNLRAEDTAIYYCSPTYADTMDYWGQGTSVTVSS VL: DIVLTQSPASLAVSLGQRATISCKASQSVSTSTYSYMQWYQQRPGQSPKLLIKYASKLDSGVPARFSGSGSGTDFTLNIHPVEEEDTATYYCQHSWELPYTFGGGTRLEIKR | binding result | binds |

The measured values listed here are drawn from patent US20160237160A1.
